B1: r11_951_TrROS_Hall (parent)
chain: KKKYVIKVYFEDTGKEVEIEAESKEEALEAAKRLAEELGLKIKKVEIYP

Variants of: B1
TEST: folding stability dG (cDNA display proteolysis); higher = more stable
MEASUREMENT_PARAMETERS: PBS, room temperature
QUANTITY_KIND: folding stability dG (kcal/mol)
Supply the numeric figure in kcal/mol, leaving out any unit text.

A30F    4.66
K24N    4.46

Req: Tell me the measured folding stability dG of E36I , please.
Resp: 4.61

Req: Tell me the measured folding stability dG of L38D , please.
Resp: 3.39

Req: Tell me the measured folding stability dG of F10T , please.
Resp: 3.32
